- Tested on: Fibroblast
- assay.protocol: Incucyte cell viability with human fibroblast; note: unitless GR value; below 1 slowed growth and below 0 cell loss
- Type: toxicity, cell-based
- measurement.parameters: 18 h, 10 µM, compound concentration 10 uM, replicate number 2, timepoint 18 hours
Where a SMILES comes first, the peptide text is derived from it. [ ]: non-standard residue; d: D form. Arg(Me) = CNC(=N)NCCC[C@H](N)C(=O)O; d3Pal = N[C@H](Cc1cccnc1)C(=O)O; azaGly = NNC(=O)O
Bucketed by reported Growth Rate, buckets being low (below 0.2), mid (0.2 to below 0.8), high (0.8 or more)

INSERT INTO measurements (compound, assigned_category) VALUES
  ('Cl.Cl.NCCc1c[nH]cn1 [HISTAMINE DIHYDROCHLORIDE]', 'high'),
  ('N#Cc1cc2c(OCC(O)CN3CCN(C(c4ccccc4)c4ccccc4)CC3)cccc2[nH]1 (racemic)', 'high'),
  ('CN(C)CCN(Cc1ccc(-c2ccc(CNCCc3ccccc3)cc2)cc1)C(=O)CCC1CCCC1.Cl.Cl', 'low'),
  ('O=S(=O)(c1ccccc1)N(CC(F)(F)F)c1ccc(C(O)(C(F)(F)F)C(F)(F)F)cc1', 'low'),
  ('O=C(O)c1n[nH]c2c1C[C@H]1C[C@@H]21', 'high'),
  ('CC(C)c1noc(N2CCC(COc3ccc(-c4ccc(S(C)(=O)=O)cc4)nc3)CC2)n1', 'mid'),
  ('CNC(=N)NCCC[C@H](NC(=O)[C@H](CC(C)C)NC(=O)NNC(=O)[C@H](Cc1ccccc1)NC(=O)[C@H](CO)NC(=O)[C@H](CC(N)=O)NC(=O)[C@@H](Cc1cccnc1)NC(=O)[C@H](N)Cc1ccc(O)cc1)C(=O)NCC(N)=O [KISS1-543] (H-[dY][d3Pal]NSF[azaGly]L[Arg(Me)]G-NH2)', 'mid'),
  ('CSc1ccccc1N1CCN(CCCCCC(=O)NC2CCCc3ccccc32)CC1.Cl (stereo not drawn)', 'mid'),
  ('CCOc1c2c(c(OCC)c3ncccc13)CN(c1ccc(CS(=O)(=O)NC(=O)Cc3ccccc3OC)cc1C)C2=O', 'low'),
  ('COc1cc2nc(N(C)CCCNC(=O)C3CCCO3)nc(N)c2cc1OC.Cl (stereo not drawn) [ALFUZOSIN HYDROCHLORIDE]', 'mid'),
  ('CN(c1ncccc1CNc1ccnc(-c2cc3cc(Cl)ccc3[nH]2)n1)S(C)(=O)=O', 'low'),
  ('CN(C)c1ccnc2sc3c(=O)n(N4CCCCCC4)cnc3c12', 'low'),
  ('Br.Br.c1ncc(CC2CCNCC2)[nH]1', 'high'),
  ('C=CCNc1ncnc2ccc(Br)cc12', 'high'),
  ('CN1[C@@H]2CC[C@H]1C[C@@H](OC(=O)C(CO)c1ccccc1)C2 (stereo partly drawn)', 'high'),
  ('Cc1cc(=O)n(C)c2cc(N3C(=O)CC[C@H](NS(=O)(=O)CC(C)C)[C@H]3c3ccc(Cl)cc3)ccc12', 'low'),
  ('CN1CCC(C(=O)c2cccc(NC(=O)c3c(F)cc(F)cc3F)n2)CC1', 'high'),
  ('Cc1c(C(=O)NN2CCCCC2)nn(-c2ccc(Cl)cc2Cl)c1-c1ccc(Cl)cc1', 'mid'),
  ('C[N+]1(C)[C@@H]2C[C@@H](OC(=O)C(O)(c3cccs3)c3cccs3)C[C@H]1[C@@H]1O[C@@H]12.O.[Br-] [TIOTROPIUM BROMIDE]', 'high'),
  ('CN[C@@H](C)C(=O)N[C@H]1CCCC[C@H]2CC[C@@H](C(=O)N[C@@H](c3ccccc3)c3cn(CCCCc4ccc(CCCCn5cc([C@@H](NC(=O)[C@@H]6CC[C@@H]7CCCC[C@H](NC(=O)[C@H](C)NC)C(=O)N76)c6ccccc6)nn5)cc4)nn3)N2C1=O', 'high'),
  ('CC(=O)Nc1cccc2c1c(Sc1ccc(Cl)cc1)c(C)n2CC(=O)O', 'mid'),
  ('COc1cc(Br)c(S(=O)(=O)Nc2ccc(C(F)(F)F)c(O[C@@H]3CCN(C)C3)c2)cc1OC', 'low'),
  ('Cl.NCCc1ccc(O)c(O)c1 [DOPAMINE HYDROCHLORIDE]', 'high'),
  ('COc1ccccc1N1CCN(CCCCNC(=O)c2ccc3ccccc3c2)CC1.Cl', 'low'),
  ('COC(=O)Nc1nc2ccc(C(=O)c3cccs3)cc2[nH]1', 'low'),
  ('Cc1cc(CN)cc(C)c1-c1ncn(C)c1-c1ccnc2cc(F)ccc12', 'mid'),
  ('CN(C(=O)c1ccccc1)c1cc(N(C)c2ccc3c(c2)CCc2ccc(C(=O)NCCN4CCOCC4)cc2C3=O)ccc1F', 'low'),
  ('Nc1nc(-c2ccco2)c2cnn(Cc3ccccc3F)c2n1', 'low'),
  ('CC[C@H](Nc1ncnc2[nH]cnc12)c1nc2cccc(F)c2c(=O)n1-c1ccccc1', 'mid');
